Items are presented alongside their recorded IC50.
Molecular target: 5-lipoxygenase (Homo sapiens, UniProt P09917)
Construct: endogenous in cells
Sequence (P09917 1-674): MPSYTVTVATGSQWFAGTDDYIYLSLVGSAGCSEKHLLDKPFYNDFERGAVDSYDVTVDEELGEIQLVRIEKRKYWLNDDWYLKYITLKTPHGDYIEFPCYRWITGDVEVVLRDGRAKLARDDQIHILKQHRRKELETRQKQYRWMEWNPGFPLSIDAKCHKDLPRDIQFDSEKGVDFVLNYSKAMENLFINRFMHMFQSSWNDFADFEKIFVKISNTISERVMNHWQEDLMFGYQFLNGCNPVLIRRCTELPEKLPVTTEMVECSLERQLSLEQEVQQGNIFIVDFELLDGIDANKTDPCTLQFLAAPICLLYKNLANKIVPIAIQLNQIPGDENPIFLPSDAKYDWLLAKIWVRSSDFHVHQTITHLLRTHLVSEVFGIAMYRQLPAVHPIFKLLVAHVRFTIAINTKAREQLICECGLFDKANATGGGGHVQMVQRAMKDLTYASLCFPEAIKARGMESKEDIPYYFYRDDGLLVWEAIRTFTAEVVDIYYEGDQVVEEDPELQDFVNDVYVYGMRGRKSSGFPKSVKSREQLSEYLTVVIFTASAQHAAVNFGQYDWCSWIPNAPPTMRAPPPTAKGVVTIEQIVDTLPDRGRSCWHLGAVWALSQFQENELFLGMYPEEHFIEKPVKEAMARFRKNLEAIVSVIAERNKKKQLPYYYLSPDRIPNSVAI
Assay: 5-Lipoxygenase inhibition in human leukocytes (LTC4 by radioimmunoassay)
Conditions: A23187 stimulated, LTC4 readout, read-out: IC50 (concentration producing 50% leukotriene biosynthesis inhibition)
Report as a plain number; the unit µM is understood.

Take a look at these entries with their results.
| Compound | Reported Metric | Measurement |
| --- | --- | --- |
| CCC(CC)N(O)C(=O)NC(C)(C)c1cccc(C(C)(C)NC(=O)N(O)C(CC)CC)c1 [Example 13] | IC50 | 65 |
| CN(O)C(=O)Nc1cccc(NC(=O)N(C)O)c1 [Example 7] | IC50 | 5.9 |
| O=C(NCCCCCCNC(=O)N(O)Cc1ccccc1)N(O)Cc1ccccc1 [Example 10] | IC50 | 0.1 |
| CCC(CC)N(O)C(=O)Nc1ccc(C)c(NC(=O)N(O)C(CC)CC)c1 [Example 16] | IC50 | 58.6 |

Given the compound CCC(CC)N(O)C(=O)NCCCCCCCCNC(=O)N(O)C(CC)CC [Example 18] , what is its reported IC50?
0.33

Entry CCC(CC)N(O)C(=O)NCCCC(C)CNC(=O)N(O)C(CC)CC (stereo not drawn) [Example 17] please
12

====

Tested on: Leukotriene B4 production in rat blood
Assay: Rat ex vivo Leukotriene B4 inhibition
Type: in vivo
Details: 50 mg/Kg oral, 2 hours post dose, ex vivo A23187 challenge
Items are presented alongside their recorded inhibition in vivo at 50 mg/kg.
Report as a plain number; the unit % is understood.

| Structure | Assay Target | inhibition in vivo at 50 mg/kg, % |
| --- | --- | --- |
| CN(O)C(=O)Nc1ccc(Cc2ccc(NC(=O)N(C)O)cc2)cc1 | Leukotriene B4 production in rat blood | 93 |
| O=C(NCCCCCCNC(=O)N(O)Cc1ccccc1)N(O)Cc1ccccc1 | Leukotriene B4 production in rat blood | 8 |
| CCC(CC)N(O)C(=O)Nc1ccc(Cc2ccc(NC(=O)N(O)C(CC)CC)cc2)cc1 | Leukotriene B4 production in rat blood | 15 |

Given the compound `CN(O)C(=O)N[C@H]1CC[C@H](NC(=O)N(C)O)CC1` , what is its reported inhibition in vivo at 50 mg/kg?
4

Entry `CN(O)C(=O)Nc1cccc(NC(=O)N(C)O)c1` please
59

Entry `CC(C)N(O)C(=O)Nc1ccc(Cc2ccc(NC(=O)N(O)C(C)C)cc2)cc1` please
34

Entry `COc1cc(-c2ccc(NC(=O)N(C)O)c(OC)c2)ccc1NC(=O)N(C)O` please
4

Entry `O=C(Nc1ccc(Cc2ccc(NC(=O)N(O)Cc3ccccc3)cc2)cc1)N(O)Cc1ccccc1` please
6
